// data source = PubChem BioAssay AID1259407

Test system: CCRIS mutagenicity, Ames/micronucleus/aberration tests
Experiment description: CCRIS mutagenicity studies
Condition notes: End Point: IN VITRO CHROMOSOMAL ABERRATIONS; Test System: CHO CELLS; Metabolic Activation: NONE
The source made the active and inactive calls. How the calls were made is not given here.
Readout name: mutagenic call

# Structure, Val
rows = [
    ("BrC(Br)Br", "inactive; negative"),
    ("CCCCCCc1ccc(O)cc1O", "inactive; negative"),
    ("CN(C)[C@@H]1C(=O)C(C(N)=O)=C(O)[C@@]2(O)C(=O)C3=C(O)c4c(O)cccc4[C@@](C)(O)[C@H]3[C@H](O)[C@@H]12", "inactive; negative"),
]

###

System: CCRIS mutagenicity, Ames/micronucleus/aberration tests
Experiment description: CCRIS mutagenicity studies
Condition notes: Test System: AMES SALMONELLA TYPHIMURIUM; Strain/Indicator: TA97; Metabolic Activation: HAMSTER, LIVER, S-9, AROCLOR 1254 (10%); Method: PREINCUBATION
Calls of active or inactive are those of the source. How the calls were made is not given here.
Outcomes: active, inactive

# Molecule, Classification
measured = [
    ("c1cc2c3c(cccc3c1)CC2", "inactive"),
    ("O=C1NC(=O)c2cc([N+](=O)[O-])ccc21", "inactive"),
    ("Cc1ccc(N)c(C)c1", "active"),
    ("Nc1cc([N+](=O)[O-])cc(S(=O)(=O)O)c1O", "inactive"),
    ("CCO", "inactive"),
    ("CC(=O)CC(=O)Nc1ccccc1", "inactive"),
    ("CCOP(=S)(OCC)OP(=S)(OCC)OCC", "inactive"),
    ("c1ccc2sc(SSc3nc4ccccc4s3)nc2c1", "inactive"),
    ("Cl[C@@H]1C2(Cl)C3C4[C@@H]5O[C@@H]5[C@H]5C3[C@@](Cl)(C2(Cl)Cl)[C@]1(Cl)[C@@H]45 (stereo not given in full)", "inactive"),
    ("Cc1ccc(N=C=O)cc1N=C=O", "inactive"),
    ("CC(O)C#N (stereo not given)", "inactive"),
    ("O=Cc1c(Cl)cccc1Cl", "inactive"),
    ("O=C(NO)c1ccccc1", "active"),
    ("Cc1cccc(Br)c1", "inactive"),
    ("N#CCc1ccccc1[N+](=O)[O-]", "inactive"),
]

###

System: CCRIS mutagenicity, Ames/micronucleus/aberration tests
Experiment description: CCRIS mutagenicity studies
Condition notes: Test System: AMES SALMONELLA TYPHIMURIUM; Strain/Indicator: TA100; Metabolic Activation: RAT, LIVER, S-9, PCB; Method: PREINCUBATION
Active and inactive are the calls of the source. How the calls were made is not given here.
Outcomes: active, inactive

# Compound, Classification
data = [
    ("C/C=C1/C[C@@H](C)[C@@](C)(O)C(=O)OCC2=CCN3CC[C@@H](OC1=O)[C@@H]23", "inactive"),
    ("CC(=O)OC(C)CN(CC(C)OC(C)=O)N=O (centres undefined)", "active"),
    ("COc1c(CO)c(O)cc2c1C(=O)c1ccccc1C2=O", "active"),
    ("CCOCc1c(O)cc2c(c1O)C(=O)c1ccccc1C2=O", "active"),
    ("CCCCN(C[C@H](CO)Cc1ccccc1)N=O", "active"),
    ("O=C(CBr)c1ccc(Br)cc1", "inactive"),
    ("[N-]=[N+]=NC[C@H](CO)Cc1ccccc1", "active"),
    ("Cc1cccc(C)c1NO", "active"),
    ("Cc1nc2ccc(N)cc2nc1C", "active"),
    ("ClCc1c2ccccc2cc2ccccc12", "active"),
    ("C[C@@H](CN=[N+]=[N-])c1ccccc1", "active"),
    ("Cc1c(O)cc2c(c1O)C(=O)c1cccc(O)c1C2=O", "active"),
    ("CC(=O)CN(CC(C)O)N=O (centres undefined)", "active"),
    ("C1CCNC1", "inactive"),
]

###

System: CCRIS mutagenicity, Ames/micronucleus/aberration tests
Experiment description: CCRIS mutagenicity studies
Condition notes: Test System: AMES SALMONELLA TYPHIMURIUM; Strain/Indicator: TA98; Metabolic Activation: RAT, LIVER, S-9, AROCLOR 1254; Method: PREINCUBATION
Activity calls are given as the source filed them. The rule behind the calls is not given here.
Outcomes: active, inactive

# Compound, Classification
measured = [
    ("Cc1cnccn1", "inactive"),
    ("c1cnccn1", "inactive"),
    ("COc1cc(-c2ccc(N)c(OC)c2)ccc1N", "active"),
    ("C=CC1CC=CCC1 (stereo not given)", "inactive"),
    ("[CH3][Pb]([CH3])([CH3])[CH3]", "inactive"),
    ("CCOc1ccc(NC(N)=O)cc1", "inactive"),
    ("CCCCCCc1ccc(O)cc1O", "inactive"),
    ("CCn1c(N)nc2c3nc(C)cnc3ccc21", "active"),
    ("CC1CNCC(C)O1 (stereo not given)", "inactive"),
    ("CCOP(=S)(OCC)Oc1nc(Cl)n(C(C)C)n1", "active"),
    ("CNS(=O)(=O)c1ccc(N)cc1", "inactive"),
    ("Nc1ccc(Oc2ccc([N+](=O)[O-])cc2)cc1", "active"),
    ("C=CCOC(=O)c1ccccc1C(=O)OCC=C", "inactive"),
    ("Cc1cccn2c1nc1ccc(N)nc12", "active"),
    ("CN(C)c1ccc(N=Nc2ccc3ncsc3c2)cc1", "active"),
    ("O=C(O)C1C(C(=O)O)C2(Cl)C(Cl)=C(Cl)C1(Cl)C2(Cl)Cl (stereo not given)", "inactive"),
    ("CC1=NCCc2c1[nH]c1cc(O)ccc21", "inactive"),
    ("N#[N+]c1cnc([O-])[nH]c1=O", "active"),
    ("O.O.O=N[O-].O=N[O-].O=N[O-].O=N[O-].[K+].[K+].[Pt]", "inactive"),
    ("[Cl-].[Cl-].[NH2-].[NH2-].[NH2-].[NH2-].[Pt+2]", "inactive"),
    ("CN(C)[C@@H]1C(=O)C(C(N)=O)=C(O)[C@@]2(O)C(=O)C3=C(O)c4c(O)cccc4[C@@](C)(O)[C@H]3[C@H](O)[C@@H]12", "inactive"),
    ("Cc1ccc(Nc2ccc([N+](=O)[O-])cc2)cc1", "active"),
    ("BrC(Br)Br", "inactive"),
    ("OO", "inactive"),
    ("N#C[S-].N#C[S-].N#C[S-].N#C[S-].N#C[S-].N#C[S-].[K+].[K+].[Pt+4]", "inactive"),
]

###

System: CCRIS mutagenicity, Ames/micronucleus/aberration tests
Experiment description: CCRIS mutagenicity studies
Condition notes: Test System: AMES SALMONELLA TYPHIMURIUM; Strain/Indicator: TA1537; Metabolic Activation: HAMSTER, LIVER, S-9; Method: STANDARD PLATE
Activity calls are given as the source filed them. How the calls were made is not given here.
Outcomes: yes (1) for active, no (0) for inactive

# Structure, Measured on, Classification
records = [
    ("CC(=O)c1ccc(S(=O)(=O)NC(=O)NC2CCCCC2)cc1", "CCRIS mutagenicity, Ames/micronucleus/aberration tests", "no (0)"),
    ("CCOc1ccc(NC(C)=O)cc1N", "CCRIS mutagenicity, Ames/micronucleus/aberration tests", "yes (1)"),
    ("Nc1ccc2cc3ccc(N)cc3nc2c1", "CCRIS mutagenicity, Ames/micronucleus/aberration tests", "yes (1)"),
    ("COc1cc(-c2ccc(N=C=O)c(OC)c2)ccc1N=C=O", "CCRIS mutagenicity, Ames/micronucleus/aberration tests", "no (0)"),
]

###

Tested on: CCRIS mutagenicity, Ames/micronucleus/aberration tests
Experiment description: CCRIS mutagenicity studies
Condition notes: Test System: AMES SALMONELLA TYPHIMURIUM; Strain/Indicator: TA1535; Metabolic Activation: RAT, LIVER, S-9, AROCLOR 1254 (30%); Method: PREINCUBATION
Activity calls are given as the source filed them. No rule for the calls is given here.
Outcomes: active, inactive

# Molecule, Classification
data = [
    ("c1ccc(CSCc2ccccc2)cc1", "inactive"),
    ("ClC(Cl)(Cl)Cl", "inactive"),
    ("Cc1cccc(Br)c1", "inactive"),
    ("CC(=O)CC(=O)Nc1ccccc1", "inactive"),
    ("O=Cc1c(Cl)cccc1Cl", "inactive"),
    ("CCCCCCC(C)(C)C(=O)OCC1CO1 (stereo not drawn)", "active"),
    ("CC(C)(C)OCC1CO1 (stereo not drawn)", "active"),
    ("C#C[C@]1(O)CC[C@H]2[C@@H]3CCc4cc(O)ccc4[C@H]3CC[C@@]21C", "inactive"),
]
